- PROTOCOL: Antioxidant activity assessed as hydroxyl radical scavenging activity at 5 uM by ESR spin trapping assay
- Assay type: physicochemical
Please go through the items and note down their Activity.
Value expressed in %; do not type the unit.

State the recorded Activity for this entry: CC[C@H](CC[C@@H](C)[C@H]1CC[C@H]2[C@@H]3CC[C@H]4C[C@@H](OC(=O)/C=C/c5ccc(O)c(OC)c5)CC[C@]4(C)[C@H]3CC[C@]12C)C(C)C
28

Also, COc1cc(/C=C/C(=O)O[C@H]2CC[C@@]3(C)C(=CC[C@H]4[C@@H]5CC[C@H]([C@H](C)CC[C@@H](C)C(C)C)[C@@]5(C)CC[C@@H]43)C2)ccc1O please.
29

Another compound to look at: CC[C@H](CC[C@@H](C)[C@H]1CC[C@H]2[C@@H]3CC=C4C[C@@H](OC(=O)/C=C/c5ccc(O)c(OC)c5)CC[C@]4(C)[C@H]3CC[C@]12C)C(C)C
31

COc1cc(/C=C/C(=O)O)ccc1O [FERULATE] ?
33

Now the same for COc1cc(/C=C/C(=O)O[C@H]2CC[C@@]3(C)C(=CC[C@H]4[C@@H]5CC[C@H]([C@H](C)CCCC(C)C)[C@@]5(C)CC[C@@H]43)C2)ccc1O
30
